So I've got a bunch of compounds here, and I need their max response values.
# procedure_details: Cycloheximide Counterscreen for Small Molecule Inhibitors of Shiga Toxin; note: read at 38.3 µM for the half of the compounds with a filed dose; 0% is about no effect
# stated_conditions: cell reporter, cycloheximide protein synthesis inhibition counterscreen; hits give high values
Out of some 300,000 compounds screened, about 37,000 (12%) were called active. The full list was thinned out, with actives kept by preference.
Answers are plain numbers, in %.

[
  {
    "compound": "CCN(CC)CC(=O)Nc1sc2c(c1C(=O)c1ccccc1C)CCC2",
    "unit_symbol": "%",
    "max response": -2.82
  }
]

Need max response for each of these compounds.
1. Cc1nn(CC(=O)N/N=C/c2ccc(F)cc2)c(C)c1[N+](=O)[O-]
2. O=C(Nn1c(-c2ccccc2)nc2ccccc2c1=O)c1ccc([N+](=O)[O-])cc1
3. Cc1cc(C(=O)N/N=C/c2ccc(O)c([N+](=O)[O-])c2)c(C)n1-c1ccc(F)cc1
4. COc1ccccc1-c1nnc(NC(=O)c2cccc(N3C(=O)CCC3=O)c2)o1
5. C/C(CCC(=O)OC[C@H]1O[C@H](C#Cc2ccccc2)C=C[C@@H]1Oc1ccc(C)cc1)=N\OC[C@@H](O)[C@H]1O[C@@H]2OC(C)(C)O[C@@H]2[C@H]1O
6. CN(C)c1ccc(/C=C/C(=O)c2ccc(C(C)(C)C)cc2)cc1[N+](=O)[O-]

1. -2.9
2. 1.01
3. 24.9
4. -0.976
5. 1.29
6. 9.22

Record max response per entry; entries follow.
1. Cc1nnc(SCC(=O)N2CCc3ccccc32)n1-c1ccccc1
2. O=C(CSCc1ccccc1)N1CCc2ccccc21
3. COc1ccc(-c2nnc(NC(=O)CS(=O)(=O)c3ccc(Cl)cc3)o2)c(OC)c1

1: -1.58; 2: 50.5; 3: 13.7

// input: 7 compounds below; output: max response for each
1. Cc1nn(CC(=O)Nc2ccc(F)cc2)c(=O)c2ccccc12
2. COc1ccccc1-c1nnc(NC(=O)c2ccc3ncsc3c2)o1
3. CC1=C(C)CC(C(=O)NNC(=O)c2csc3c2CCC(C(C)(C)C)C3)C(C(=O)O)C1 (stereo unspecified)
4. COc1ccccc1C(=O)N/C(=C/c1ccco1)C(=O)Nc1ccc(C(=O)O)cc1
5. O=C1Nc2cc(Cl)c(Cl)cc2N(O)N1c1cc(Cl)cc(Cl)c1
6. O=C(/C=C/c1ccc2c(c1)OCCO2)c1ccc(O)cc1
7. NC(=O)N1CCc2ccccc21

1: 6.83; 2: 66.2; 3: -0.879; 4: -3.58; 5: -2.32; 6: 36.6; 7: -6.54
